Data credit: paper PMC8586700

- method-summary: Pharmacokinetic experiment, single intragastric administration, plasma by HPLC-UV
- Format: in vivo, SD rats
- assay-context: SD, rat, plasma, po, plasma, Group B (CUR 200 mg kg^−1 and PIP 150 mg kg^−1 oral), 270 min; read-out: Mean concentrations ±sd, PIP
endpoint-name: concentration at 270 min (ng/mL)

>>> observed("O=C(/C=C/C=C/c1ccc2c(c1)OCO2)N1CCCCC1 [PIP, Piperine, reference compound]")
1700

====

- method-summary: Pharmacokinetic experiment, single intragastric administration, plasma by HPLC-UV
- Type: in vivo, SD rats
- assay-context: SD (Sprague-Dawley), rat, plasma, po, plasma, Group B (CUR 200 mg kg^−1 and PIP 150 mg kg^−1 oral), 60 min; read-out: Mean concentrations ±sd, PIP
endpoint-name: concentration at 60 min (ng/mL)

>>> observed("O=C(/C=C/C=C/c1ccc2c(c1)OCO2)N1CCCCC1 [PIP, Piperine, reference compound]")
4200
